assay: n-octanol/phosphate buffered saline partition coefficient, log D of the compound at pH 7.4 by shake-flask method; assay type: physicochemical; details: n-octanol/phosphate buffered saline, read-out: logD
Result Type: logD

Below, each entry is followed by its recorded logD result.
CCOP(=O)(OCC)C(N(OC(C)c1cn(C)cn1)C(C)(C)C)C(C)(C)C (stereo in doubt; form 1) ... 3.5
CCOP(=O)(OCC)C(N(OC(C)c1ncc[nH]1)C(C)(C)C)C(C)(C)C (stereo in doubt; form 2) ... 3.6
CCOP(=O)(OCC)C(N(OC(C)c1c[nH]cn1)C(C)(C)C)C(C)(C)C (stereo in doubt; form 1) ... 3.7
CCOP(=O)(OCC)C(N(OC(C)n1ccnc1)C(C)(C)C)C(C)(C)C (stereo in doubt; form 1) ... 3.4

I. CCOP(=O)(OCC)C(N(OC(C)c1nccn1C)C(C)(C)C)C(C)(C)C (stereo in doubt; form 1)
II. CCOP(=O)(OCC)C(N(OC(C)c1cn(C)c[n+]1C)C(C)(C)C)C(C)(C)C (stereo in doubt; form 1)
Which one would you say has the larger logD value: I , or II ? Please indicate the selected item by its label.
I
(I: 3.4, II: 0.8)
